From: patent US20260265410A1

Target: T1, mouse PTPRG ECD (amino acid residues 20-733 of mouse PTPRG) fused to hFc (mouse, UniProt Q05909 20-733)
T1 construct: Produced in-house; also called mPTPRG-ECD; Mouse PTPRG-ECD-hFc; not shown: human Fc (hFc)
T1 sequence: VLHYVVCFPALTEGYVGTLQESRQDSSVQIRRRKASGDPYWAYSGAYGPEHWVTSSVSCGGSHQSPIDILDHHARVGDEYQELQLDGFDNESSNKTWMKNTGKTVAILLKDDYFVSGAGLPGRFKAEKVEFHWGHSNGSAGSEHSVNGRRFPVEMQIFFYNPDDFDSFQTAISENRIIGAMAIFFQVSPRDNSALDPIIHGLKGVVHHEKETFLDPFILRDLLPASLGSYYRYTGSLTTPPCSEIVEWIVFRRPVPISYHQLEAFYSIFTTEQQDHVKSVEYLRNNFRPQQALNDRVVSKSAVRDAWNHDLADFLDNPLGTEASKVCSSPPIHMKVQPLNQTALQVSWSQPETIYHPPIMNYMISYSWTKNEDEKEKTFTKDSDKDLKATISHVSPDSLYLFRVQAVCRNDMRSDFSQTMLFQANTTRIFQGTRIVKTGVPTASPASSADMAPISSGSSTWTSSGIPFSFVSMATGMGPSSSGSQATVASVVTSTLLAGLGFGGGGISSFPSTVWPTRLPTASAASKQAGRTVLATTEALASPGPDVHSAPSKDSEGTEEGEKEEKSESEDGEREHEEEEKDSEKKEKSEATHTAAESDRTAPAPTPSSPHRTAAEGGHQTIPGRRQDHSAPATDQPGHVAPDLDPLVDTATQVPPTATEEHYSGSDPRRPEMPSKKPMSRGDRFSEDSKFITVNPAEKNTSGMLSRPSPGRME
Assay: ELISA, one condition per Fab and antigen; y axis 0 to 1.8 without name or unit
MEASURED_ATTRIBUTE: binding result

BINDER	RESULT
Fab_17 (Fab, V domains shown, Chimeric rabbit/human Fab; also called P17; clone 17) VH: AQSLEEFGGRLATPGTPLTLTCTASGFSLGTYSMSWVRQAPGKGLEWIGTIGGRGDAYYASWAKGRFTISRTSTTVDLKMTSLATEDTATYFCVRENYGYAFDIWGPGTLVTISS VL: SFVLTQPASVQVNLGQTVSLTCTADTLSRRYASWYQQKPGQAPVLLIYRDTSRPSGVPDRFSGSSSGNTATLTISGAQAGDEADYYCATSDGSGSSYQCVFGGGTQLTVTG	binds
